// hERG current change (%, negative = inhibition) at 10uM lookup, one value per entry
# measured_target: human ether-à-go-go-related gene (hERG) potassium channel (human);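 further: peak tail current of the secondary pulse compared with the same well before compound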
# Sequence (Q12809 whole entry, looked up): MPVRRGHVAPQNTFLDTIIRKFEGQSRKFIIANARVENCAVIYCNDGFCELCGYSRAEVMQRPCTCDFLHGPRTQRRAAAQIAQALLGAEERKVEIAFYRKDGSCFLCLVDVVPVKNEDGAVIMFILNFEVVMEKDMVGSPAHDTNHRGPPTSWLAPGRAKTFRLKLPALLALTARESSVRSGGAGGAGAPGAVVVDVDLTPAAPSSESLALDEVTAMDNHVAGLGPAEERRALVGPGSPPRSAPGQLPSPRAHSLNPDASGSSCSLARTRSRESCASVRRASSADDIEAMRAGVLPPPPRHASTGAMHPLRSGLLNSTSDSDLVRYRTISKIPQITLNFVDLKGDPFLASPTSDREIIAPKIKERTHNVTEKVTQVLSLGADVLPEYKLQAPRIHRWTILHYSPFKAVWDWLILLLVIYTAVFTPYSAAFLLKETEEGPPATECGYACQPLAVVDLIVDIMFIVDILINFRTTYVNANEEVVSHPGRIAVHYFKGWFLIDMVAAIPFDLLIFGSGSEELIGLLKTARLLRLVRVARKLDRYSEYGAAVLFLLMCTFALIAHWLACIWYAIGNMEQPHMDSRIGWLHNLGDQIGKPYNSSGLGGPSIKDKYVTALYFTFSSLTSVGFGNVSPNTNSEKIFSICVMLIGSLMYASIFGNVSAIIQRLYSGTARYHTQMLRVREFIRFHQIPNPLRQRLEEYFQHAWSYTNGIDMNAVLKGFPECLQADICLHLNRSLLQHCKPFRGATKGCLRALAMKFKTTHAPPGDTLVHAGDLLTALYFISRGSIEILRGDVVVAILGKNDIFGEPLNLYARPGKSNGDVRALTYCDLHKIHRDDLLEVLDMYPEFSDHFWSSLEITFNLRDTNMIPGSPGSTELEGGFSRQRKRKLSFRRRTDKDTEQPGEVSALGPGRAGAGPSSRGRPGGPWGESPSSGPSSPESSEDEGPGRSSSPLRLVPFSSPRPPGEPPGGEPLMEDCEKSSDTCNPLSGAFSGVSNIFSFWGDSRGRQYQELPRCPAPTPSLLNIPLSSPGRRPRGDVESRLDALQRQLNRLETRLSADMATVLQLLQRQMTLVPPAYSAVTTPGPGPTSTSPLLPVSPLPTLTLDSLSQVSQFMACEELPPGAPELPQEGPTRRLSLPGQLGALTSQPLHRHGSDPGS
# assay_method_text: primary screen, population patch clamp on CHO cells stably expressing hERG; higher = less effect of the substance
Out of some 310,000 compounds screened, about 14,000 (4.5%) showed an effect of 50% or more. The effect is printed as a negative number. Only a selection was taken, and strong results are over-represented in it overall.
API: value field is a number in %; no unit string.

Consider the following illustrative entries.
| compound | units_symbol | test_value |
| --- | --- | --- |
| CNC(=O)CSc1nnc(-c2ccco2)n1-c1cc(C)ccc1C | % | -2.95 |
| Cc1ccc(-n2c(SCC(=O)Nc3ccc4c(c3)OCO4)nnc2-c2ccoc2C)cc1 | % | -42.2 |
| Cc1nonc1NC(=O)CSc1nnc(-c2ccoc2C)n1CC(C)C | % | -17.1 |
| N#C/C(=C\c1cccnc1)c1ccc([N+](=O)[O-])cc1 | % | -56.3 |
| Cc1nonc1NC(=O)CSc1nnc(-c2ccoc2C)n1-c1cccc(Cl)c1 | % | -77.9 |
| O=C(NCCO)c1ccc2[nH]c3ccccc3c2c1 | % | 9.18 |

q: Retrieve hERG current change (%, negative = inhibition) at 10uM measured for Cc1cc(NC(=O)C23CCC(C)(C(=O)O2)C3(C)C)no1 (stereo not shown) and print it.
a: 12

q: Find the measured hERG current change (%, negative = inhibition) at 10uM of Cc1nonc1NC(=O)CSc1nnc(-c2ccoc2C)n1C and report it.
a: 4.89

q: Give recorded hERG current change (%, negative = inhibition) at 10uM. Cc1cccc(-n2c(SCC(=O)Nc3nonc3C)nnc2-c2ccoc2C)c1
a: -78.9

q: Name the recorded hERG current change (%, negative = inhibition) at 10uM of the compound listed here: Cc1ccc(S(=O)(=O)NCCCCCC(=O)NC(C)(C)CO)cc1
a: 13.7

Values compiled from paper PMC4336329.
